# TEST: RP, Thermo Scientific Hypersil GOLD, 1.9 µm, 40 °C, 0.4 mL/min; A: water + 0.1% formic acid, pH 3; B: acetonitrile + 0.1% formic acid, pH 3; gradient (min/%B) 0/0 1/0 11/100 13/100 14/0 16/0
# DETAILS: stereoisomer not certain
MEASURED_PARAMETER: LC retention time
# output: numeric value plus its unit

1) NCCCCC(=O)O [5-AMINOPENTANOATE] ... 0.71 min

QUERY: # LC retention time lookup, item CC(C)(CC(=O)O)CC(=O)O
RESULT: 5.04 min

QUERY: # LC retention time lookup, item CCC(O)C(=O)[O-] (configuration not stated) [2-HYDROXYBUTYRATE]
RESULT: 1.71 min

QUERY: # LC retention time lookup, item Cn1cc(C(N)=O)ccc1=O [N-methyl-2-pyridone-5-carboxamide]
RESULT: 1.6 min

QUERY: # LC retention time lookup, item NCCS(=O)O
RESULT: 0.63 min

QUERY: # LC retention time lookup, item O=C(O)CCCC(=O)C(=O)O [2-OXOADIPATE]
RESULT: 1.05 min

QUERY: # LC retention time lookup, item O=C(O)C=Cc1ccc(O)cc1 [4-COUMARATE]
RESULT: 5.43 min

QUERY: # LC retention time lookup, item O=P(O)(O)O
RESULT: 0.64 min

QUERY: # LC retention time lookup, item CC(=O)NC(CCC(=O)O)C(=O)O (configuration not stated) [N-ACETYLGLUTAMATE]
RESULT: 0.93 min

QUERY: # LC retention time lookup, item NC(CCO)C(=O)O (configuration not stated)
RESULT: 0.62 min

QUERY: # LC retention time lookup, item CC(C)(O)C(=O)O [ALPHA-HYDROXYISOBUTYRATE]
RESULT: 1.62 min

QUERY: # LC retention time lookup, item NC(=O)C=CC(=O)O [MALEAMATE]
RESULT: 0.82 min

QUERY: # LC retention time lookup, item COc1cc(C(O)C(=O)O)ccc1O (configuration not stated) [3-METHOXY-4-HYDROXYMANDELATE]
RESULT: 2.15 min

QUERY: # LC retention time lookup, item O=c1ccn(C2OC(COP(=O)(O)OP(=O)(O)OP(=O)(O)O)C(O)C2O)c(=O)[nH]1 (configuration not stated) [URIDINE TRIPHOSPHATE]
RESULT: 0.6 min

QUERY: # LC retention time lookup, item O=c1ccn(C2CC(O)C(COP(=O)(O)O)O2)c(=O)[nH]1 (configuration not stated) [DEOXYURIDINE-MONOPHOSPHATE]
RESULT: 0.82 min
